System: P. intermedia virulence genes
assay_protocol: Virulence gene expression in multi-species biofilm (SYBR RT-qPCR)
Format: cell-based
assay_conditions: upper part of Table 6d, substrate 1 M; relative to control = 1; n = 3
Collected fold change in ECF expression, geometric mean (95% C.I.) values appear next to each entry.

So what does the record say about fold change in ECF expression, geometric mean (95% C.I.) for OC[C@H]1O[C@H](OC[C@H]2O[C@H](O[C@]3(CO)O[C@H](CO)[C@@H](O)[C@@H]3O)[C@H](O)[C@@H](O)[C@@H]2O)[C@H](O)[C@@H](O)[C@H]1O [D-raffinose, D-(+)-raffinose] ?
6.74 (1.96-23.20)^∗ fold

So what does the record say about fold change in ECF expression, geometric mean (95% C.I.) for "OC[C@H]1O[C@@H](O[C@H]2[C@H](O)[C@@H](O)[C@@H](O)O[C@@H]2CO)[C@H](O)[C@@H](O)[C@H]1O" ?
1.72 (0.56-5.25) fold

More entries:
So what does the record say about fold change in ECF expression, geometric mean (95% C.I.) for CC(=O)N[C@H]1C(O)O[C@H](CO)[C@@H](O)[C@@H]1O (stereo partly shown) ?
20.32 (4.81-85.88)^∗ fold

So what does the record say about fold change in ECF expression, geometric mean (95% C.I.) for OC[C@H]1O[C@H](O[C@H]2O[C@H](CO)[C@@H](O)[C@H](O)[C@H]2O)[C@H](O)[C@@H](O)[C@@H]1O [D-trehalose, D-(+)-trehalose] ?
6.97 (1.65-29.40)^∗ fold

###

Test system: P. intermedia virulence genes
assay_protocol: Virulence gene expression in multi-species biofilm (SYBR RT-qPCR)
Format: cell-based
assay_conditions: upper part of Table 6d, substrate 1 M; relative to control = 1; n = 3
experimental_readout: fold change in DnaJ expression, geometric mean (95% C.I.)

Solved entries:
State its fold change in DnaJ expression, geometric mean (95% C.I.) on P. intermedia virulence genes: OC[C@H]1O[C@H](OC[C@H]2O[C@H](O[C@]3(CO)O[C@H](CO)[C@@H](O)[C@@H]3O)[C@H](O)[C@@H](O)[C@@H]2O)[C@H](O)[C@@H](O)[C@H]1O [D-raffinose, D-(+)-raffinose]
1.76 (0.92-3.37) fold

State its fold change in DnaJ expression, geometric mean (95% C.I.) on P. intermedia virulence genes: CC(=O)N[C@H]1C(O)O[C@H](CO)[C@@H](O)[C@@H]1O (stereo partly shown)
0.64 (0.35-1.16) fold

State its fold change in DnaJ expression, geometric mean (95% C.I.) on P. intermedia virulence genes: OC[C@H]1O[C@H](O[C@H]2O[C@H](CO)[C@@H](O)[C@H](O)[C@H]2O)[C@H](O)[C@@H](O)[C@@H]1O [D-trehalose, D-(+)-trehalose]
1.81 (1.21-2.71) fold

From here, focus on the item given below.
State its fold change in DnaJ expression, geometric mean (95% C.I.) on P. intermedia virulence genes: "OC[C@H]1O[C@@H](O[C@H]2[C@H](O)[C@@H](O)[C@@H](O)O[C@@H]2CO)[C@H](O)[C@@H](O)[C@H]1O"
0.25 (0.05-1.25)^∗ fold

###

Test system: F. nucleatum
assay_protocol: Multi-species biofilm composition, absolute abundance (Geq/mL)
Assay type: cell-based
assay_conditions: substrate 1 M in PBS, repeated rinsing, n = 3
experimental_readout: absolute abundance of F. nucleatum (Fn), mean ± SD log (Geq/mL)

Solved entries:
So what does the record say about absolute abundance of F. nucleatum (Fn), mean ± SD log (Geq/mL) for OC[C@H]1O[C@@H](O[C@H]2[C@H](O)[C@@H](O)[C@@H](O)O[C@@H]2CO)[C@H](O)[C@@H](O)[C@H]1O [D-lactose, α-D-lactose] ?
5.49 ± 0.46^∗ log (Geq/mL)

So what does the record say about absolute abundance of F. nucleatum (Fn), mean ± SD log (Geq/mL) for OC[C@H]1O[C@H](O[C@H]2O[C@H](CO)[C@@H](O)[C@H](O)[C@H]2O)[C@H](O)[C@@H](O)[C@@H]1O [D-trehalose, D-(+)-trehalose] ?
6.51 ± 0.43^∗ log (Geq/mL)

So what does the record say about absolute abundance of F. nucleatum (Fn), mean ± SD log (Geq/mL) for CC(=O)N[C@H]1C(O)O[C@H](CO)[C@@H](O)[C@@H]1O (stereo partly drawn) [NADG, N-acetyl-D-glucosamine] ?
7.22 ± 0.28^∗ log (Geq/mL)

From here, focus on the item given below.
So what does the record say about absolute abundance of F. nucleatum (Fn), mean ± SD log (Geq/mL) for OC[C@H]1O[C@H](OC[C@H]2O[C@H](O[C@]3(CO)O[C@H](CO)[C@@H](O)[C@@H]3O)[C@H](O)[C@@H](O)[C@@H]2O)[C@H](O)[C@@H](O)[C@H]1O [D-raffinose, D-(+)-raffinose] ?
6.73 ± 0.06^∗ log (Geq/mL)

Data origin, for the record: patent US20230346670A1
